Tested on: SDAs as compared to NSDAs
Assay: Binding activity of peptides line-blotted onto PVDF to SDAs as compared to NSDAs
Set-up: species or system human; key: showed a substantially higher binding activity to SDAs as compared to their binding to NSDAs (indicated as YES in the table); No: showed no significant differences in their binding to samples from schizophrenic and non-schizophrenic individuals (designed as no in the table)
Conditions: binding to SDAs versus NSDAs
Measurement Kind: Activity

Here is how some substances turned out for Activity.
{"columns": ["Substance", "Result"],
 "data": [
  ["6 (DLVVGLCTGQIKTGAPCR; peptide capable of binding antibodies that are found in elevated levels in body fluids of schizophrenic patients.) [compound 6]", "YES"],
  ["4 (IADLVVGLCTGQIKTGAPCR; peptide capable of binding antibodies that are found in elevated levels in body fluids of schizophrenic patients.) [compound 4]", "YES"],
  ["11 (VVGLCTGQIKTGAPCR; peptide capable of binding antibodies that are found in elevated levels in body fluids of schizophrenic patients.) [compound 11]", "No"],
  ["9 (LVVGLCTPQIKTGPACR; peptide capable of binding antibodies that are found in elevated levels in body fluids of schizophrenic patients.) [compound 9]", "YES"],
  ["10 (SGETEDTFIADLVVGLCTGQ; peptide capable of binding antibodies that are found in elevated levels in body fluids of schizophrenic patients.) [compound 10]", "No"],
  ["13 (LVVGLCTGQIKTGAPC; peptide capable of binding antibodies that are found in elevated levels in body fluids of schizophrenic patients.) [compound 13]", "No"]
]}

API: the following record is the query input.
// lookup Activity for LVVGLCTCQIKTGPAC (peptide capable of binding antibodies that are found in elevated levels in body fluids of schizophrenic patients.) [SEQ ID NO: 3]
No
